The measured values listed here are drawn from PubChem BioAssay (NCI).

assay: NCI Yeast Anticancer Drug Screen. Data for the sgs1 mgt1 strain (AID 161);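 further: 0% = growth of cultures given vehicle only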; conditions: S. cerevisiae sgs1 mgt1 strain, at 50.0 µM, stronger effect = higher value
About 79,000 compounds went through this panel and 15% of them were active in at least one assay; those are over-represented in the sample as a whole.
assay-readout: growth inhibition (%)
Express the result in % but write the number alone.

Recorded growth inhibition, per entry:
c1ccc(-c2nc3ccccc3nc2-c2ccc(-c3ccc(-c4nc5ccccc5nc4-c4ccccc4)cc3)cc2)cc1 : -13.8
O=C(NCCc1ccccc1Br)c1ccccc1 : -5.95
CC(=O)c1ccc(O)c(C)c1 : -6.55
CC1=CC(=O)Nc2ccccc2S1 : 59.2

In the following, a different compound is considered.
Data request: Requested read-out: growth inhibition. Entry: "S=C(Nc1c2c(nc3ccccc13)CCCC2)Nc1c2c(nc3ccccc13)CCCC2"
Data returned: -0.3

###

assay: NCI Yeast Anticancer Drug Screen. Data for the bub3 strain (AID 167); conditions: S. cerevisiae bub3 mutant strain, at 50.0 µM, stronger effect = higher value
Compounds without any hit were thinned out: in the full panel of roughly 79,000, 15% have a hit.
assay-readout: growth inhibition (%)
Quick note: give the figure in %, leave out the unit.

Solved entries:
COc1ccc(C(=O)C(CN(C)C)CN(C)C)cc1OC : -11.7
COc1cccc(-c2nsc(=O)o2)c1 : 52.6
COC(=O)c1ccc(C(=O)OC)cc1 : 8.95
CC(C)(Br)C(=O)N1CCN(C(c2ccccc2)c2ccccc2)CC1 : -0.3
Cc1ccc(C(=O)c2ccccc2Cc2ccc3ccccc3c2)cc1 : 61.2

Data request: Value lookup for growth inhibition; key = "CCCCN(CCCC)c1c([N+](=O)[O-])c(=O)nc2ccccn12"
Data returned: 11.2

Data request: Look up growth inhibition: "CCOC(=O)C/C(C(=O)O)=C(\C)c1ccc2ccccc2c1"
Data returned: -2.25

Data request: Please report the recorded growth inhibition for C=CCOC(=O)NC(CCC(=O)OC)C(=O)O (stereo not drawn) .
Data returned: -2.45

Data request: Recorded growth inhibition for "COc1ccc2c(N=[N+]=[N-])c(-c3ccccc3)c(=O)oc2c1" , please?
Data returned: 3.15

Data request: What does the data say about its growth inhibition? Entry: "CC(C)c1cccc(C(C)C)c1NC(=O)OC1CCCCC1"
Data returned: -1.6

Data request: Query (molecule): CC1(C)OCC(C2CCC3(C)C4=CCC5C(C)(C)C(O)CCC5(C)C4CCC23C)CC(O)C1O (stereo not drawn) ; field requested: growth inhibition
Data returned: 64.8

Data request: Tell me the measured growth inhibition of "Cc1ccc(C)c(NC(=O)Oc2ccc(Br)cc2Br)c1" , please.
Data returned: -1

Data request: Suppose we examine the molecule O=C(Nc1ccn(C2CCC(CO)O2)c(=O)n1)c1ccccc1 (stereo not drawn) ; what growth inhibition value has been reported?
Data returned: 4.25

Data request: Value lookup for growth inhibition; key = "Fc1ccc(-c2ccc(Br)cc2)cc1"
Data returned: 17

Data request: Please give the measured growth inhibition for this molecule: "Cc1cc(C(=O)O)c2cc(Br)ccc2n1"
Data returned: 11.2

Data request: // returns reported growth inhibition for input "Cc1ccc(S(=O)(=O)C(=S)N(C)N(C)C)cc1"
Data returned: 25.4

Data request: What value of measured growth inhibition is listed for "CCNC(=O)Nc1ccccn1" ?
Data returned: -5.05

Data request: State the recorded growth inhibition for this entry: CCc1ccc(Cc2ccc(CC)c(NC(=O)C(=O)C3NC(=S)NC3=O)c2CC)c(CC)c1NC(=O)C(=O)C1NC(=S)NC1=O (stereo not drawn)
Data returned: 3.85

Data request: Form field: reported growth inhibition of "COc1cccc(CN2CCCN(Cc3cccc(OC)c3O)C2c2ccccc2)c1O"
Data returned: 0.9

Data request: Give its growth inhibition value. Item: "N#CC1(c2ccccc2)C(c2ccccc2)=C1c1ccccc1"
Data returned: 8.7

Data request: Could you share which growth inhibition value was measured for "N#CCC(=O)NCCc1ccccn1" ?
Data returned: 10.2
